- experimentalSystem: N. fowleri CYP51 (Naegleria fowleri, UniProt A0A6A5BCR7, E4K/I5A/S2A, form not given)
Some molecules, each annotated with its measured concentration giving complete inhibition of N. fowleri CYP51 activity.
assayMetric: concentration giving complete inhibition of N. fowleri CYP51 activity (µM)

molecule	experimentalSystem	relationQualifier	number
O=C(N[C@@H](Cn1ccnc1)c1ccc(Cl)cc1Cl)c1ccc(-c2nnc(-c3ccc(C(F)(F)F)c(F)c3)o2)cc1	N. fowleri CYP51 (Naegleria fowleri, UniProt A0A6A5BCR7, E4K/I5A/S2A, form not given)	>	50
O=C(N[C@@H](Cn1ccnc1)c1ccc(Cl)cc1Cl)c1ccc(-c2nnc(-c3ccc(F)c(F)c3)o2)cc1	N. fowleri CYP51 (Naegleria fowleri, UniProt A0A6A5BCR7, E4K/I5A/S2A, form not given)	=	6
CC[C@@H]([C@H](C)O)n1ncn(-c2ccc(N3CCN(c4ccc(OC[C@@H]5CO[C@@](Cn6cncn6)(c6ccc(F)cc6F)C5)cc4)CC3)cc2)c1=O [posaconazole, reference compound]	N. fowleri CYP51 (Naegleria fowleri, UniProt A0A6A5BCR7, E4K/I5A/S2A, form not given)	=	2.0
